- System: RAW264.7
- test_name: Antiinflammatory activity against mouse RAW264.7 cells assessed as inhibition of LPS-induced NO production at 5 uM after 24 hrs by Griess assay
- Assay type: functional
Activity calls are given as the source filed them. The rule behind the calls is not given here.
recorded_endpoint: inhibition

Answered examples (5):
O=c1oc2cc(OS(=O)(=O)c3ccccc3)ccc2c2c1CCCCC2	Active
CS(=O)(=O)Oc1ccc2c3c(c(=O)oc2c1)CCCCC3	Active
Cc1ccc(S(=O)(=O)Oc2ccc3c4c(c(=O)oc3c2)CCCCC4)cc1	Active
CCS(=O)(=O)Oc1ccc2c3c(c(=O)oc2c1)CCCCC3	Active
O=c1oc2cc(OS(=O)(=O)c3ccccc3)ccc2c2c1CCCCCC2	Active

Please look up its inhibition: O=c1oc2cc(OS(=O)(=O)C3CC3)ccc2c2c1CCCCC2
Active

Please look up its inhibition: O=c1oc2cc(OS(=O)(=O)C3CC3)ccc2c2c1CCCCCC2
Active

Please look up its inhibition: CCCS(=O)(=O)Oc1ccc2c3c(c(=O)oc2c1)CCCCC3
Active

Please look up its inhibition: CCCS(=O)(=O)Oc1ccc2c3c(c(=O)oc2c1)CCCCCC3
Active

Please look up its inhibition: CCS(=O)(=O)Oc1ccc2c3c(c(=O)oc2c1)CCCCCC3
Active

Please look up its inhibition: CS(=O)(=O)Oc1ccc2c3c(c(=O)oc2c1)CCCCCC3
Active

Please look up its inhibition: O=c1oc2cc(OS(=O)(=O)c3ccc(C(F)(F)F)cc3)ccc2c2c1CCCCCC2
Active

Please look up its inhibition: Cc1ccc(S(=O)(=O)Oc2ccc3c4c(c(=O)oc3c2)CCCCCC4)cc1
Active

----------
- System: RAW264.7
- test_name: Antiinflammatory activity against mouse RAW264.7 cells assessed as inhibition of LPS-induced PGE2 production administered 1 hr prior to LPS-challenge measured after 24 hrs by EIA
- Type: functional, cell-based
pIC50: −log10 of the molar value.
pIC50 of 8 or higher: MET. Under 8: NOT MET.

CCCS(=O)(=O)Oc1ccc2c3c(c(=O)oc2c1)CCCCCC3	MET

Decide: pIC50 of NS(=O)(=O)Oc1ccc2c3c(c(=O)oc2c1)CCCCC3 [IROSUSTAT] >= 8?
NOT MET

----------
Property: pIC50; scope: individual molecules
- System: RAW264.7
- test_name: Antiinflammatory activity against mouse RAW264.7 cells assessed as inhibition of LPS-induced PGE2 production administered 1 hr prior to LPS-challenge measured after 24 hrs by EIA
- Assay type: functional, cell-based
pIC50 here is simply -log10 of the concentration when that concentration is written in mol/L.

Answered examples (2):
O=c1oc2cc(OS(=O)(=O)c3ccc(C(F)(F)F)cc3)ccc2c2c1CCCCC2	8.19
Cc1ccc(S(=O)(=O)Oc2ccc3c4c(c(=O)oc3c2)CCCCCC4)cc1	8.17

Please look up its pIC50: O=c1oc2cc(OS(=O)(=O)c3ccc(C(F)(F)F)cc3)ccc2c2c1CCCCCC2
8.22

Please look up its pIC50: CS(=O)(=O)Nc1ccc([N+](=O)[O-])cc1OC1CCCCC1
8.15
